Recorded values, source patent US5464796A.

Reported MIC by item:
test system: Klebsiella sp.; assay: MIC by series dilution on Iso-Sensitest agar; type: cell-based; conditions: Klebsiella; strain 8085; 37° C., about 20 hours, 10^4 colony-forming particles per spot
The reply should be a number in mg/L, with the unit left off.

Sample answers from the record:
Nc1cccc2c1CN(c1c(F)cc3c(=O)c(C(=O)O)cn(C4CC4)c3c1F)C2 [Ref, reference compound]	4
CNC1C=CCC2CN(c3c(F)cc4c(=O)c(C(=O)O)cn(C5CC5)c4c3Cl)CC21 (centres unmarked) [Example 3]	0.03
CNC1C=CCC2CN(c3cc4c(c(C)c3F)c(=O)c(C(=O)O)cn4C3CC3)CC21 (centres unmarked) [Example 4]	0.25
CNC1C=CCC2CN(c3c(F)cc4c(=O)c(C(=O)O)cn(C5CC5)c4c3F)CC21 (centres unmarked) [Example 1]	0.06
CNC1C=CCC2CN(c3nc4c(cc3F)c(=O)c(C(=O)O)cn4-c3ccc(F)cc3F)CC21 (centres unmarked) [11 B]	0.5
CNC1C=CC(C)C2CN(c3c(F)cc4c(=O)c(C(=O)O)cn(C5CC5)c4c3F)CC12 (centres unmarked) [Example 6]	0.06
CNC1C=CCC2CN(c3nc4c(cc3F)c(=O)c(C(=O)O)cn4C3CC3)CC21.Cl (centres unmarked) [Example 10]	0.13

Noted MIC for CNC1C=CC(C)C2CN(c3cc4c(cc3F)c(=O)c(C(=O)O)cn4C3CC3)CC12 (centres unmarked) [Example 5] , tested on Klebsiella sp.: 0.06

---

tested on: Morganella morg.; experiment: MIC by series dilution on Iso-Sensitest agar; assay type: cell-based; settings: Morganella, 20 h, strain 932; 37° C., about 20 hours, 10^4 colony-forming particles per spot
# MIC per entry
Answer with a number only, understood to be in µg/mL.

CNC1C=CC(C)C2CN(c3c(F)cc4c(=O)c(C(=O)O)cn(C5CC5)c4c3F)CC12 (stereo not shown)	0.06

Please fill in: MIC reported for Nc1cccc2c1CN(c1c(F)cc3c(=O)c(C(=O)O)cn(C4CC4)c3c1F)C2 [Ref, reference compound] = 1

The reported MIC of the compound CNC1C=CCC2CN(c3c(F)cc4c(=O)c(C(=O)O)cn(C5CC5)c4c3Cl)CC21 (stereo not shown) was 0.03

Note to self: MIC recorded for CNC1C=CCC2CN(c3cc4c(c(C)c3F)c(=O)c(C(=O)O)cn4C3CC3)CC21 (stereo not shown) was 0.5

---

tested on: Providencia spp.; experiment: MIC by series dilution on Iso-Sensitest agar; format: cell-based; conditions: Providencia, 20 h, strain 12012; 37° C., about 20 hours, 10^4 colony-forming particles per spot
PARAMETER MEASURED: log10 MIC (log10 of the value in µg/mL)
All values: base-10 log of MIC in µg/mL.

Sample answers from the record:
CNC1C=CC(C)C2CN(c3c(F)cc4c(=O)c(C(=O)O)cn(C5CC5)c4c3F)CC12 (stereo not drawn)	-0.89
CNC1C=CCC2CN(c3cc4c(cc3F)c(=O)c(C(=O)O)cn4C3CC3)CC21 (stereo not drawn)	-0.89
CNC1C=CCC2CN(c3c(F)cc4c(=O)c(C(=O)O)cn(C5CC5)c4c3Cl)CC21 (stereo not drawn)	-1.52
CNC1C=CC(C)C2CN(c3cc4c(cc3F)c(=O)c(C(=O)O)cn4C3CC3)CC12 (stereo not drawn)	-0.89

From here, focus on the item given below.
Documented log10 MIC of Nc1cccc2c1CN(c1c(F)cc3c(=O)c(C(=O)O)cn(C4CC4)c3c1F)C2 [Ref, reference compound] : 0.00

---

System: E. coli
Assay: MIC by series dilution on Iso-Sensitest agar
Type: cell-based, Escherichia coli
Settings: Escherichia coli, 20 h, strain 455/7; 37° C., about 20 hours, 10^4 colony-forming particles per spot
Procedure: The minimum inhibitory concentrations (MIC) were determined by series dilution methods on Iso-Sensitest agar (Oxoid). […] The inoculated agar plates were incubated at 37° C. and the germ growth was read off after about 20 hours. The MIC value (μg/ml) indicates the lowest active compound concentration at which no growth was to be detected with the naked eye. […]
PARAMETER MEASURED: log10 MIC (log10 of the value in µg/mL)
Would you kindly interpret these values as log10 of MIC expressed in µg/mL?

These recorded examples may help you get a feel for the data.
CNC1C=CCC2CN(c3cc4c(cc3F)c(=O)c(C(=O)O)cn4C3CC3)CC21 (stereo not drawn) [Example 2]	0.30
CNC1C=CCC2CN(c3nc4c(cc3F)c(=O)c(C(=O)O)cn4C3CC3)CC21.Cl (stereo not drawn) [Example 10]	0.90
CNC1C=CC(C)C2CN(c3c(F)cc4c(=O)c(C(=O)O)cn(C5CC5)c4c3F)CC12 (stereo not drawn) [Example 6]	0.00
CNC1C=CCC2CN(c3c(F)cc4c(=O)c(C(=O)O)cn(C5CC5)c4c3F)CC21 (stereo not drawn) [Example 1]	-0.30
CNC1C=CCC2CN(c3nc4c(cc3F)c(=O)c(C(=O)O)cn4-c3ccc(F)cc3F)CC21 (stereo not drawn) [11 B]	1.20
CNC1C=CCC2CN(c3cc4c(c(C)c3F)c(=O)c(C(=O)O)cn4C3CC3)CC21 (stereo not drawn) [Example 4]	1.20
CNC1C=CC(C)C2CN(c3cc4c(cc3F)c(=O)c(C(=O)O)cn4C3CC3)CC12 (stereo not drawn) [Example 5]	0.30
CNC1C=CCC2CN(c3c(F)cc4c(=O)c(C(=O)O)cn(C5CC5)c4c3Cl)CC21 (stereo not drawn) [Example 3]	-0.60

Known value: E. coli log10 MIC of the compound Nc1cccc2c1CN(c1c(F)cc3c(=O)c(C(=O)O)cn(C4CC4)c3c1F)C2 [Ref, reference compound] equals 2.11

---

tested on: Staphyloccus aureus; assay: MIC by series dilution on Iso-Sensitest agar; assay type: cell-based, Staphylococcus aureus; details: Staphylococcus aureus, 20 h, strain 133; 37° C., about 20 hours, 10^4 colony-forming particles per spot
Each record here notes measured MIC.
Answer with a number only, understood to be in µg/mL.

Consider the reported MIC for these compounds:
Nc1cccc2c1CN(c1c(F)cc3c(=O)c(C(=O)O)cn(C4CC4)c3c1F)C2 [Ref, reference compound]	0.03
CNC1C=CCC2CN(c3c(F)cc4c(=O)c(C(=O)O)cn(C5CC5)c4c3Cl)CC21 (stereo not drawn) [Example 3]	0.02
CNC1C=CCC2CN(c3cc4c(c(C)c3F)c(=O)c(C(=O)O)cn4C3CC3)CC21 (stereo not drawn) [Example 4]	0.03
CNC1C=CCC2CN(c3nc4c(cc3F)c(=O)c(C(=O)O)cn4C3CC3)CC21.Cl (stereo not drawn) [Example 10]	0.06

// MIC lookup, compound = CNC1C=CCC2CN(c3c(F)cc4c(=O)c(C(=O)O)cn(C5CC5)c4c3F)CC21 (stereo not drawn) [Example 1] , result: 0.02

---

test system: Morganella morg.; test: MIC by series dilution on Iso-Sensitest agar; assay type: cell-based; conditions: Morganella, 20 h, strain 932; 37° C., about 20 hours, 10^4 colony-forming particles per spot
PARAMETER MEASURED: MIC (mg/L)
Give just the number in mg/L; leave the unit off.

Consider the worked cases shown below.
CNC1C=CCC2CN(c3nc4c(cc3F)c(=O)c(C(=O)O)cn4C3CC3)CC21.Cl (stereo not shown) [Example 10]	0.25
CNC1C=CCC2CN(c3nc4c(cc3F)c(=O)c(C(=O)O)cn4-c3ccc(F)cc3F)CC21 (stereo not shown) [11 B]	0.5
CNC1C=CC(C)C2CN(c3cc4c(cc3F)c(=O)c(C(=O)O)cn4C3CC3)CC12 (stereo not shown) [Example 5]	0.06

The record that follows has no MIC shown yet.
The compound identified as CNC1C=CCC2CN(c3c(F)cc4c(=O)c(C(=O)O)cn(C5CC5)c4c3F)CC21 (stereo not shown) [Example 1] registered its MIC at 0.06

---

system: Enterocococus faecalis; assay: MIC by series dilution on Iso-Sensitest agar; assay type: cell-based, Enterococcus faecalis; conditions: Enterococcus faecalis, 20 h, strain 9790; 37° C., about 20 hours, 10^4 colony-forming particles per spot
Catalogue of MIC values
The response must be a number in mg/L with no trailing unit.

Illustrative cases are given below, each with its answer.
CNC1C=CCC2CN(c3c(F)cc4c(=O)c(C(=O)O)cn(C5CC5)c4c3Cl)CC21 (centres unmarked)	0.02
Nc1cccc2c1CN(c1c(F)cc3c(=O)c(C(=O)O)cn(C4CC4)c3c1F)C2 [Ref, reference compound]	1
CNC1C=CC(C)C2CN(c3cc4c(cc3F)c(=O)c(C(=O)O)cn4C3CC3)CC12 (centres unmarked)	0.03

Looking up CNC1C=CCC2CN(c3nc4c(cc3F)c(=O)c(C(=O)O)cn4-c3ccc(F)cc3F)CC21 (centres unmarked) , I see its MIC listed as 0.25

Record CNC1C=CCC2CN(c3cc4c(c(C)c3F)c(=O)c(C(=O)O)cn4C3CC3)CC21 (centres unmarked) . Reported MIC: 0.13
